FYI, the data here is from PubChem BioAssay (NCI).

- System: MOLT-4 leukemia
- experimentNotes: NCI-60 one-dose screen, 48 h (100 = growth as untreated, 0 = no growth, -100 = all killed)
- protocolConditions: 10 µM unless noted
This is part of a sample that, as a whole, favours compounds with a hit. Of some 83,000 tested, about 20% had one in any assay.
Mark met only for growth values smaller than 30%; exact matches and larger values are not met.

Check if growth falls below 30% for "N#Cc1c(-c2ccc(Cl)cc2)nc(NN=Cc2cccc(O)c2)nc1N1CCOCC1" .
not met

***
Answer whether the molecule "COc1cccc(/C=C/C(=O)c2cc3c(N)c(C(=O)Nc4ccccc4)sc3nc2C)c1" has growth strictly less than 30%
met

Given "N#C/C(=C\c1ccc2ccccc2c1)c1cc2ccccc2[nH]1" , is recorded growth strictly lower than 30%?
met

Quick check: growth of "O=C1c2cccnc2C(=O)c2c1c(C(=O)NCCCN1CCCCC1)c1ccccn21" under 30%?
met

Lab log: compare recorded growth with 30%; is it strictly lower for CC12CCC3c4ccccc4CCC3(CO1)C2 (stereo unspecified) ?
not met

Find out if reported growth for "Cc1ccc(-n2c(=S)[nH]c3sc4c(c3c2=O)CCC(=O)C4)cc1" is less than 30%
not met

Confirm or reject: growth of "Cc1c(-c2nc3ccc(F)cc3c(=O)[nH]2)c2ccccc2n1C" lies strictly below 30%
met

Just wondering, is growth of "Cc1ccc(/C=N/Nc2nc(Nc3ccccc3)nc(-n3nc(C)cc3C)n2)cc1" below 30%?
not met

Find out if reported growth for "C/C(=C(/c1ccc(Cl)cc1)c1ccc(OCCN2CCCC2)cc1)c1ccc(Cl)cc1" is less than 30%
not met

Answer whether the molecule "Fc1cc(F)cc(C(c2c[nH]c3ccccc23)c2c[nH]c3ccccc23)c1" has growth strictly less than 30%
not met

---

Reported growth values follow for various compounds
- System: UACC-62 melanoma
- experimentNotes: NCI-60 one-dose screen, 48 h (100 = growth as untreated, 0 = no growth, -100 = all killed)
- protocolConditions: 10 µM unless noted
This is part of a sample that, as a whole, favours compounds with a hit. Of some 83,000 tested, about 20% had one in any assay. Active and inactive are the calls of the source. How the source made its calls: active means growth percent below 10; inactive means the rest.

Look over these answered cases.
Record "O=C1NCCC12CCN(c1c(Cl)cncc1-c1ccc(O)cc1)CC2" . Reported growth: 90.2% (inactive)

Data point: "CC(C)(C)[Si](C)(C)O[C@H]1C(=O)C=CN2CC=C[C@@H]12" ; growth = 85.3% [100 µM] (inactive)

// field: growth; key: "CN1CCN(Cc2ccc(NC(=O)c3cncc(C#Cc4cnc(N)c5ccccc45)c3)cc2C(F)(F)F)CC1" ; value = -91.4% (active)

Value of growth reported for the compound "O=C(/C=C/c1ccc(Cl)cc1)c1cccc(Nc2nc(Nc3ccccc3)nc(Nc3ccccc3)n2)c1" is 96.9% (inactive)

growth measured on "O=C1c2cccc(NCCN=Cc3cc(O)ccc3O)c2C(=O)c2c(NCCN=Cc3cc(O)ccc3O)cccc21" = 5.11% (active)

---
# compound CC(C)NC1CCC(Nc2ccnc3cc(Cl)ccc23)CC1 (stereo not given) ; its growth = 97.3% (inactive)

growth recorded for this compound, CN(Cc1ccc(C(F)(F)F)cc1)CC(O)C(=O)Nc1ccc(Cl)cc1 (stereo not given) , is 29.7% (inactive)

Form: compound = CC1=C(C(=O)OC(C)C)C(c2ccc3c(c2)OCO3)NC(=S)N1 (stereo not given) ; growth = 85.2% (inactive)

// recorded growth for Cc1ccc(S(=O)(=O)N2CCCC2CO)cc1 (stereo not given) : 104% (inactive)

Value of measured growth for the entry "N#C/C(=C\c1ccc2ccccc2c1)c1cc2ccccc2[nH]1" : 32.2% (inactive)
